tested on: Aspergillus niger; test: Antifungal activity against Aspergillus niger MTCC 1344 at 100 ug/ml after 48 hrs by agar cup diffusion method; format: functional; details: MTCC 1344, 48 h, read-out: DIZ
readoutKind: zone of inhibition at 100 µg/mL (mm)
State the answer as a number, implicitly in mm.

See these solved cases before continuing.
FC(F)(F)c1nc(OCc2cn(CCC(F)(F)C(F)(F)C(F)(F)C(F)(F)C(F)(F)C(F)(F)F)nn2)c2ccccc2n1 = 12
C#CCn1c(-c2ccccc2)nc2ccccc2c1=O = 10
FC(F)(F)C(F)(F)C(F)(F)C(F)(F)C(F)(F)C(F)(F)C(F)(F)C(F)(F)CCn1nncc1COc1nc(-c2ccccc2)nc2ccccc12 = 12
FC(F)(F)c1nc(OCc2cn(CCC(F)(F)C(F)(F)C(F)(F)C(F)(F)C(F)(F)C(F)(F)C(F)(F)C(F)(F)F)nn2)c2ccccc2n1 = 9
FC(F)(F)C(F)(F)C(F)(F)C(F)(F)C(F)(F)C(F)(F)CCn1cc(COc2nc(-c3ccccc3)nc3ccccc23)nn1 = 11

Lookup result for `O=c1c2ccccc2nc(C(F)(F)F)n1Cc1cn(CCC(F)(F)C(F)(F)C(F)(F)C(F)(F)C(F)(F)C(F)(F)F)nn1` ; measured zone of inhibition at 100 µg/mL: 9

Lookup result for `O=c1c2ccccc2nc(-c2c(F)cccc2F)n1Cc1cn(CCC(F)(F)C(F)(F)C(F)(F)C(F)(F)C(F)(F)C(F)(F)C(F)(F)C(F)(F)F)nn1` ; measured zone of inhibition at 100 µg/mL: 10

Lookup result for `FC(F)(F)C(F)(F)C(F)(F)C(F)(F)C(F)(F)C(F)(F)C(F)(F)C(F)(F)CCn1cc(COc2nc(-c3ccccc3)nc3ccccc23)nn1` ; measured zone of inhibition at 100 µg/mL: 10

Lookup result for `C#CCOc1nc(-c2ccccc2)nc2ccccc12` ; measured zone of inhibition at 100 µg/mL: 10

----------
tested on: Saccharomyces cerevisiae; experiment: Antifungal activity against Saccharomyces cerevisiae MTCC 36 at 30 ug/ml after 48 hrs by agar cup diffusion method; assay type: functional; settings: MTCC 36, 48 h, read-out: DIZ
Attribute: zone of inhibition at 30 µg/mL

O=c1c2ccccc2nc(-c2ccccc2)n1Cc1cn(CCC(F)(F)C(F)(F)C(F)(F)C(F)(F)C(F)(F)C(F)(F)F)nn1 = 8 mm
O=c1c2ccccc2nc(C(F)(F)F)n1Cc1cn(CCC(F)(F)C(F)(F)C(F)(F)C(F)(F)C(F)(F)C(F)(F)F)nn1 = 9 mm
C#CCn1c(-c2ccccc2)nc2ccccc2c1=O = 9 mm

Moving on to the next compound.
Lookup result for `FC(F)(F)C(F)(F)C(F)(F)C(F)(F)C(F)(F)C(F)(F)C(F)(F)C(F)(F)CCn1cc(COc2nc(-c3ccccc3)nc3ccccc23)nn1` ; measured zone of inhibition at 30 µg/mL: 7 mm

----------
tested on: Saccharomyces cerevisiae; assay: Antifungal activity against Saccharomyces cerevisiae MTCC 36 at 100 ug/ml after 48 hrs by agar cup diffusion method; format: functional; conditions: MTCC 36, 48 h, read-out: DIZ
Attribute: zone of inhibition at 100 µg/mL
State the answer as a number, implicitly in mm.

Lookup result for `FC(F)(F)C(F)(F)C(F)(F)C(F)(F)C(F)(F)C(F)(F)CCn1cc(COc2nc(-c3ccccc3)nc3ccccc23)nn1` ; measured zone of inhibition at 100 µg/mL: 9

Lookup result for `FC(F)(F)c1nc(OCc2cn(CCC(F)(F)C(F)(F)C(F)(F)C(F)(F)C(F)(F)C(F)(F)F)nn2)c2ccccc2n1` ; measured zone of inhibition at 100 µg/mL: 9

Lookup result for `O=c1c2ccccc2nc(-c2ccccc2)n1Cc1cn(CCC(F)(F)C(F)(F)C(F)(F)C(F)(F)C(F)(F)C(F)(F)C(F)(F)C(F)(F)F)nn1` ; measured zone of inhibition at 100 µg/mL: 9

Lookup result for `O=c1c2ccccc2nc(C(F)(F)F)n1Cc1cn(CCC(F)(F)C(F)(F)C(F)(F)C(F)(F)C(F)(F)C(F)(F)F)nn1` ; measured zone of inhibition at 100 µg/mL: 12

Value source: ChEMBL document CHEMBL1154719
